- System Name: HLA-A*02:01 (Homo sapiens, UniProt P04439, D140Y/D185E/D98H/E176V/E277Q/G131W/G231S/I119V/I121R/I166T/I218V/L300P/L318F/N151K/N90K/P208A/P217A/Q86G/Q94H/R138H/R169H/T345S)
- Assay: HLA-peptide competition binding assay, A*02:01
- Protocol Conditions: read-out: IC50 nM, target assay A*02:01
Where no end group is shown, it is not given here.
Overview of recorded IC50 for various sequences
Write the answer as a number in nM, unit excluded.

>  <Sequence Content>
LLQEYNWEL [reference compound]

>  <IC50 (nM)>
35

$$$$
>  <Sequence Content>
KLQVFLIVL [reference compound]

>  <IC50 (nM)>
1370

$$$$
>  <Sequence Content>
FLFAVGFYL [reference compound]

>  <IC50 (nM)>
1.1

$$$$

Given the entry WLLPLWAAL [WLLPLWAAL, reference compound] , report its measured IC50. 4.2

Same thing, different sequence: TMHSLTIQM [reference compound] 104

For YIPSCTVVGM [reference compound] then? 9510

Try this sequence too: ILVLASTITI [reference compound] 675

Also SLSPLQAEL [reference compound] ? 101

Subsequent entry: SISVLISAL [SISVLISAL, reference compound] 1550

Moving on to the next sequence: VMNILLQYVV [reference compound] 2310

Check KMYAFTLES [reference compound] too. 880

What do we get for SMCRFSPLTL [reference compound] ? 1150

And GIPPAPRGV [reference compound] ? 1230

Continue with VLNSLASLL [reference compound] 4970
